tested on: biotinyl-Ile-oxazolone; experiment: self-aminoacylation, catalytic enhancement (BIO) (fold over background); higher = more active; k-Seq, kA / k0A0; sequences stand for … in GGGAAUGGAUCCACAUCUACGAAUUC…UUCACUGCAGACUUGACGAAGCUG
Variants at the floor of the assay were thinned out.
assay-readout: self-aminoacylation

[[record]]
biopolymer_sequence = "UUACUUCAAACAAUCGGUUUG [Fam1A.1 aminoacylation ribozyme variant]"
reported_value = 1.59

[[record]]
biopolymer_sequence = "UCACACUUCAAGCAAUCGGUA [Fam1B.1 aminoacylation ribozyme variant]"
reported_value = 0.993

[[record]]
biopolymer_sequence = "AUGCACGUAGGUCAUCGGGUG [Fam2.2 aminoacylation ribozyme variant]"
reported_value = 3.52

[[record]]
biopolymer_sequence = "CCACACUUCAAGCACUCGGUC [Fam1B.1 aminoacylation ribozyme variant]"
reported_value = 0.855

[[record]]
biopolymer_sequence = "AUUCCCCUAGGUCAUAGGGUG [Fam2.2 aminoacylation ribozyme variant]"
reported_value = 3.38

[[record]]
biopolymer_sequence = "AUUCAGUUAGGUCAUCGGGUG [Fam2.2 aminoacylation ribozyme variant]"
reported_value = 3.04

[[record]]
biopolymer_sequence = "UAGUUUGCUAAUAGUCGCAAA [Fam3.1 aminoacylation ribozyme variant]"
reported_value = 1.95

[[record]]
biopolymer_sequence = "CUACUUCAAACCAUCGGUUUG [Fam1A.1 aminoacylation ribozyme variant]"
reported_value = 0.815


---

test system: biotinyl-Ile-oxazolone; assay: self-aminoacylation, catalytic enhancement (BIO) (fold over background); higher = more active; k-Seq, kA / k0A0; sequences stand for … in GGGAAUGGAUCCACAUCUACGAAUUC…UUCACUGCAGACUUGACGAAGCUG
This sample holds only a part of the variants without activity.
Quick rule: self-aminoacylation of at least 2 means true, below that means false.

[[record]]
biopolymer_sequence = "AUUACCCUGCUCAUCCAGUGA [Fam2.1 aminoacylation ribozyme variant]"
qualitative_label = "true"

[[record]]
biopolymer_sequence = "CGACACUUCAAGCAAUUGGUC [Fam1B.1 aminoacylation ribozyme variant]"
qualitative_label = "false"

[[record]]
biopolymer_sequence = "AUUAUCCUGGUCAUCGUGUGA [Fam2.1 aminoacylation ribozyme variant]"
qualitative_label = "true"

[[record]]
biopolymer_sequence = "AUUAUCCUAGUCAUCGAGUGA [Fam2.1 aminoacylation ribozyme variant]"
qualitative_label = "true"

[[record]]
biopolymer_sequence = "ACUACCCUGGUCAUCGAGUGA [Fam2.1 aminoacylation ribozyme variant]"
qualitative_label = "true"

[[record]]
biopolymer_sequence = "CUACUUCAUACAAUCGUUCUG [Fam1A.1 aminoacylation ribozyme variant]"
qualitative_label = "false"

[[record]]
biopolymer_sequence = "GUUCACCUAGGUCAUCGGCUG [Fam2.2 aminoacylation ribozyme variant]"
qualitative_label = "false"

[[record]]
biopolymer_sequence = "AUUGACCUAGGUCAUCGGGCG [Fam2.2 aminoacylation ribozyme variant]"
qualitative_label = "true"

[[record]]
biopolymer_sequence = "CCAUACUUCAAGAAAUCGGUC [Fam1B.1 aminoacylation ribozyme variant]"
qualitative_label = "false"

[[record]]
biopolymer_sequence = "AUUAGCCUGGUCAUGGAGUGA [Fam2.1 aminoacylation ribozyme variant]"
qualitative_label = "true"

[[record]]
biopolymer_sequence = "AAGUUUGCUGAUAGUCUCAAG [Fam3.1 aminoacylation ribozyme variant]"
qualitative_label = "false"

[[record]]
biopolymer_sequence = "CCCCACUUCAAGCAAUCGGAC [Fam1B.1 aminoacylation ribozyme variant]"
qualitative_label = "false"

[[record]]
biopolymer_sequence = "CCACACGUCAAUCAAUCGGUC [Fam1B.1 aminoacylation ribozyme variant]"
qualitative_label = "false"

[[record]]
biopolymer_sequence = "AUUACCCUGGACAUCCAGUGA [Fam2.1 aminoacylation ribozyme variant]"
qualitative_label = "true"

[[record]]
biopolymer_sequence = "CAACACUUCAAGCGAUCGGUC [Fam1B.1 aminoacylation ribozyme variant]"
qualitative_label = "false"

[[record]]
biopolymer_sequence = "CUACUGUAAACAAUCGGUCUG [Fam1A.1 aminoacylation ribozyme variant]"
qualitative_label = "false"

[[record]]
biopolymer_sequence = "AUUACCCCGGUCAUCUAGUGA [Fam2.1 aminoacylation ribozyme variant]"
qualitative_label = "true"

[[record]]
biopolymer_sequence = "CCACACUUCAAGUCAUCGGUC [Fam1B.1 aminoacylation ribozyme variant]"
qualitative_label = "false"

[[record]]
biopolymer_sequence = "AAGUUACCUAAUAGUCGCAAG [Fam3.1 aminoacylation ribozyme variant]"
qualitative_label = "false"

[[record]]
biopolymer_sequence = "CCACACUUCAAGCAAUCAGCC [Fam1B.1 aminoacylation ribozyme variant]"
qualitative_label = "false"

[[record]]
biopolymer_sequence = "CCACACUUCAAACAAUCGGUC [Fam1B.1 aminoacylation ribozyme variant]"
qualitative_label = "false"

[[record]]
biopolymer_sequence = "AAGUUUGCUAAAAGUCUCAAG [Fam3.1 aminoacylation ribozyme variant]"
qualitative_label = "false"

[[record]]
biopolymer_sequence = "AUUACCCUGGUCCGCGAGUGA [Fam2.1 aminoacylation ribozyme variant]"
qualitative_label = "true"

[[record]]
biopolymer_sequence = "CGACUUCAAACAAUCGGUCGG [Fam1A.1 aminoacylation ribozyme variant]"
qualitative_label = "true"

[[record]]
biopolymer_sequence = "CCACACUUCACGCAAUCGGUU [Fam1B.1 aminoacylation ribozyme variant]"
qualitative_label = "false"

[[record]]
biopolymer_sequence = "AUUAACCUGGUCCUCGAGUGA [Fam2.1 aminoacylation ribozyme variant]"
qualitative_label = "true"

[[record]]
biopolymer_sequence = "AGUCACCUACGUCAUCGGGUG [Fam2.2 aminoacylation ribozyme variant]"
qualitative_label = "true"

[[record]]
biopolymer_sequence = "AUUAGCCUGGUCAUCUAGUGA [Fam2.1 aminoacylation ribozyme variant]"
qualitative_label = "true"

[[record]]
biopolymer_sequence = "AUUAACCUAGGUCAUCGGUUG [Fam2.2 aminoacylation ribozyme variant]"
qualitative_label = "false"

[[record]]
biopolymer_sequence = "AUUAGCCUAGUCAUCGAGUGA [Fam2.1 aminoacylation ribozyme variant]"
qualitative_label = "true"

[[record]]
biopolymer_sequence = "AUUCCCCUCGUCAUCGAGUGA [Fam2.1 aminoacylation ribozyme variant]"
qualitative_label = "true"

[[record]]
biopolymer_sequence = "AUUUCCCUGGUCAACGAGUGA [Fam2.1 aminoacylation ribozyme variant]"
qualitative_label = "true"

[[record]]
biopolymer_sequence = "AAGUUUGUUAAUAGUCGCAAU [Fam3.1 aminoacylation ribozyme variant]"
qualitative_label = "false"

[[record]]
biopolymer_sequence = "CAACUUCAAAUAAUCGGUCUG [Fam1A.1 aminoacylation ribozyme variant]"
qualitative_label = "false"

